Field: absorption maximum. Provide a value for each of the compounds that follow.
# assay: solvent given as SMILES
# test.conditions: in ClCCl
Hi! Could you send only the number? It should be in nm, unit omitted.

Tell me the measured absorption maximum of O=c1c2cccc3cccc(c32)c2nc3c4ccccc4c4ccccc4c3n12 , please.
436

Tell me the measured absorption maximum of F[B-]1(F)n2c(-c3ccccc3)cc(-c3cccs3)c2N=C2C(c3cccs3)=CC(c3ccccc3)=[N+]21 , please.
683

Tell me the measured absorption maximum of CCCCCCOc1cc(C=C2C(=O)c3ccccc3C2=O)c(OCCCCCC)cc1C=C1C(=O)c2ccccc2C1=O , please.
512

Tell me the measured absorption maximum of Cc1cc2c3ccccc3oc2c2[nH]c3ccccc3c12 , please.
314

Tell me the measured absorption maximum of CC(C)(C)c1ccc2c3ccccc3c3cncnc3c2c1 , please.
348

Tell me the measured absorption maximum of COc1ccc(-c2nc(C(C)=O)c(C)o2)cc1 , please.
277

Tell me the measured absorption maximum of CSc1ccc(/C=C/c2cnc3ccccc3n2)cc1 , please.
381

Tell me the measured absorption maximum of CC(C)(C)c1ccc2c(c1)c1cc(C(C)(C)C)ccc1n2-c1ccc(C#Cc2ccc(C=O)cc2)cc1 , please.
354

Tell me the measured absorption maximum of O=S1(=O)C2=C(c3ccc(N(c4ccccc4)c4ccccc4)cc31)C1(C3=C(c4ccccc41)S(=O)(=O)c1cc(N(c4ccccc4)c4ccccc4)ccc13)c1ccccc12 , please.
451

Tell me the measured absorption maximum of COc1ccc(-c2cc3c(s2)c(C(C)=O)cc(=O)n3C)cc1 , please.
418

Tell me the measured absorption maximum of CCn1c2ccccc2c2cc(-c3cc(-c4ccc5c(c4)c4ccccc4n5CC)nc(-c4ccc(C#N)cc4)n3)ccc21 , please.
365

Tell me the measured absorption maximum of CCCC(=O)c1c2c(c(C(=O)CCC)c3c1OC(CC(=O)OC)(C(=O)O)O3)OCO2 , please.
423

Tell me the measured absorption maximum of COc1ccc(/C=C/C2=C3CCc4ccccc4C3=[O+][B-](F)(F)O2)cc1 , please.
467

Tell me the measured absorption maximum of O=S(=O)(c1ccc(-c2ccc(-c3nc4c5ccccc5c5ccccc5c4n3-c3ccccc3)cc2)cc1)c1ccc(-c2ccc(-c3nc4c5ccccc5c5ccccc5c4n3-c3ccccc3)cc2)cc1 , please.
368

====

Field: absorption maximum. Provide a value for each of the molecules that follow.
# assay: solvent given as SMILES
# test.conditions: in CS(C)=O
Hi! Could you send only the number? It should be in nm, unit omitted.

Tell me the measured absorption maximum of O=C(NCc1cc(=O)oc2cc(O)c(Br)cc12)c1cccnc1 , please.
408

Tell me the measured absorption maximum of CCC1=C(C)C(=O)n2c1cc1c(c(C)c(C(=O)OCC(C)C)n1CC(C)C)c2=O , please.
397

Tell me the measured absorption maximum of N#Cc1ccc(N/N=C/c2ccc3ccccc3c2O)cc1 , please.
390

Tell me the measured absorption maximum of O=c1oc2ccccc2cc1-c1ccc([N+](=O)[O-])cc1 , please.
344

Tell me the measured absorption maximum of CC(C)[Si]1(C(C)C)c2ccccc2-c2ccc(N(C)C)cc21 , please.
324

Tell me the measured absorption maximum of c1ccc(-c2nc(-c3ccc(-c4nc(-c5ccccc5)c(-c5ccccc5)[nH]4)cc3)[nH]c2-c2ccccc2)cc1 , please.
380

Tell me the measured absorption maximum of CCCCN1C(=S)c2cccc3cccc(c23)C1=S , please.
443

Tell me the measured absorption maximum of CCN1\C(=C/C=C/C=C/C2=[N+](CC)c3ccc4ccccc4c3C2(C)C)C(C)(C)c2c1ccc1ccccc21 , please.
686

Tell me the measured absorption maximum of O=Cc1cc(O)c(C=O)cc1O , please.
417

Tell me the measured absorption maximum of COc1cc(-c2nc3sc4ccccc4c3s2)cc(OC)c1OC , please.
358

Tell me the measured absorption maximum of O=C(N/N=C/c1ccccc1O)c1ccccc1 , please.
329

Tell me the measured absorption maximum of O=c1oc2ccccc2cc1-c1cc2ccccc2o1 , please.
371

Tell me the measured absorption maximum of CCC1=C(C)C2=Cc3cscc3B(O)N2C1=O , please.
352

Tell me the measured absorption maximum of Nc1cc[nH]c(=S)n1 , please.
285

Tell me the measured absorption maximum of CCC1(CC)c2cc(C=O)ccc2-c2ccc(N(C)C)cc21 , please.
395

Tell me the measured absorption maximum of CCN(CC)c1ccc(/C=C/C2=[O+][B-](F)(F)Oc3c2c(=O)oc2cc(N(CC)CC)ccc32)cc1 , please.
607

Tell me the measured absorption maximum of CSc1cc(-c2cc3cc4c5c(c3oc2=O)CCCN5CCC4)oc(=O)c1C#N , please.
549

Tell me the measured absorption maximum of CC1=N/C(=C\c2ccccc2N)C(=O)N1C , please.
436
